Target: HRAS (Homo sapiens, UniProt P01112)
Sequence (P01112 with tags, fused parts or gaps): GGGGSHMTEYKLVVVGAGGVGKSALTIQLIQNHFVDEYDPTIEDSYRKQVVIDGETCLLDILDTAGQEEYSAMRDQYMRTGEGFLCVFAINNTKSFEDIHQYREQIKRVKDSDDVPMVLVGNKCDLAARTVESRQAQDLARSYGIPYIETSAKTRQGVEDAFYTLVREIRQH
Flag rule - IC50 less than 2000 nM flags True; the remaining entries get False.

Record excerpt, results attached:
Lookup: Hi there! Is IC50 for CCC1CCc2cc3[nH]ncc3c(-c3nccc4c3sc3nc(OC[C@@]56CCCN5C[C@H](F)C6)nc(N5CCOC[C@@](C)(O)C5)c34)c21 (stereo partly drawn) below 2000 nM, do you know?
Found: False

Lookup: Hi there! Is IC50 for C[C@H](N(C)C)[C@@]1(COc2nc(N3CCOC[C@@](C)(O)C3)c3c(n2)sc2c(-c4c(C5CC5)c(Cl)cc5[nH]ncc45)nccc23)CC1(F)F below 2000 nM, do you know?
Found: True

Lookup: Hi there! Is IC50 for C#Cc1c(F)ccc2cc(O)cc(-c3nccc4c3sc3nc(OC[C@@]56CCCN5C[C@H](F)C6)nc(N5CCOC[C@@](C)(O)C5)c34)c12 below 2000 nM, do you know?
Found: True

Lookup: Hi there! Is IC50 for C[C@@]1(O)COCCN(c2nc(OC[C@]3(CN4CC5(CC(F)C5)C4)CC3(F)F)nc3sc4c(-c5c(C6CC6)c(Cl)cc6[nH]ncc56)nccc4c23)C1 below 2000 nM, do you know?
Found: True

Next:
Lookup: Hi there! Is IC50 for C#Cc1csc2cc3[nH]ncc3c(-c3nccc4c3sc3nc(OC[C@@]56CCCN5C[C@H](F)C6)nc(N5CCOC[C@@](C)(O)C5)c34)c12 below 2000 nM, do you know?
Found: True

Lookup: Hi there! Is IC50 for C#Cc1cccc2cc3[nH]ncc3c(-c3nccc4c3sc3nc(OC[C@@]56CCCN5C[C@H](F)C6)nc(N5CCOC[C@@](C)(O)C5)c34)c12 below 2000 nM, do you know?
Found: False
